Reference source: ChEMBL document CHEMBL1123976

TARGET_DESC: D(1A) dopamine receptor (Rattus norvegicus, UniProt P18901)
Sequence (P18901 whole entry): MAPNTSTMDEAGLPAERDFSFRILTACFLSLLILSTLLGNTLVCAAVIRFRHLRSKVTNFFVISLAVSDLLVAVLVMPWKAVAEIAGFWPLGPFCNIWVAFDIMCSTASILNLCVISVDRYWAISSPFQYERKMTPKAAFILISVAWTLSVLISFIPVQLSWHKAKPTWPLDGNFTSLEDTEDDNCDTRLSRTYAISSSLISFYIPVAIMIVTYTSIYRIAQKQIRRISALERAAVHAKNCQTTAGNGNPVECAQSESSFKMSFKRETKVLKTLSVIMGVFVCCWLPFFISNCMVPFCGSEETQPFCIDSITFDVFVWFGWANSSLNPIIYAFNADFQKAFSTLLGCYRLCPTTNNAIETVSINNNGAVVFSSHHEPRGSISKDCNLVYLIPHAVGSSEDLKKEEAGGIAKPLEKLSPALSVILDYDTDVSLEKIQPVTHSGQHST
pKi: −log10 of the molar value.
Listed here are compounds together with their documented pKi.

- COMPOUND: "CCCN1CCc2cc(Cl)c(O)cc2[C@@H]1c1ccccc1"
  TARGET_DESC: "D(1A) dopamine receptor (Rattus norvegicus, UniProt P18901)"
  pKi: 6.75
- COMPOUND: "CN1CCc2cc(Cl)c(O)cc2C1Cc1ccccc1 (racemic)"
  TARGET_DESC: "D(1A) dopamine receptor (Rattus norvegicus, UniProt P18901)"
  pKi: 7.27
- COMPOUND: "Oc1cc2c(cc1Cl)CNCC2c1ccccc1 (racemic)"
  TARGET_DESC: "D(1A) dopamine receptor (Rattus norvegicus, UniProt P18901)"
  pKi: 6.25
- COMPOUND: "CN1Cc2cc(Cl)c(O)cc2C(c2ccccc2)C1 (racemic)"
  TARGET_DESC: "D(1A) dopamine receptor (Rattus norvegicus, UniProt P18901)"
  pKi: 6.76
- COMPOUND: "CN1CCc2cc(Cl)c(O)cc2[C@H]1c1ccccc1"
  TARGET_DESC: "D(1A) dopamine receptor (Rattus norvegicus, UniProt P18901)"
  pKi: 6.35
- COMPOUND: "CN1CCc2cc(Cl)c(O)cc2[C@@H]1c1ccccc1"
  TARGET_DESC: "D(1A) dopamine receptor (Rattus norvegicus, UniProt P18901)"
  pKi: 8.18

---

EXPERIMENTAL_PROTOCOL: Inhibition of Dopamine-stimulated adenylate cyclase obtained from rat corpus striatum was determined by the conversion of [32P]ATP to [32P]-cAMP

- COMPOUND: "CN1CCc2cc(Cl)c(O)cc2C1c1ccccc1 (racemic)"
  Ki (nM): 8.98

---

Below are log10(Ki) values recorded for D(2) dopamine receptor (Rattus norvegicus).
TEST_READOUT: log10(Ki) (log10 of the value in nM)

- COMPOUND: "Oc1cc2c(cc1Cl)CNCC2c1ccccc1 (racemic)"
  TARGET_DESC: "D(2) dopamine receptor (Rattus norvegicus)"
  TEST_READOUT: "log10(Ki)"
  MEASURED: 3.56
- COMPOUND: "CN1Cc2cc(Cl)c(O)cc2C(c2ccccc2)C1 (racemic)"
  TARGET_DESC: "D(2) dopamine receptor (Rattus norvegicus)"
  TEST_READOUT: "log10(Ki)"
  MEASURED: 2.72
- COMPOUND: "CN1CCc2cc(Cl)c(O)cc2C1c1ccccc1 (racemic)"
  TARGET_DESC: "D(2) dopamine receptor (Rattus norvegicus)"
  TEST_READOUT: "log10(Ki)"
  MEASURED: 2.96
- COMPOUND: "Oc1cc2c(cc1Cl)CCNCC2c1ccccc1 (stereo unspecified)"
  TARGET_DESC: "D(2) dopamine receptor (Rattus norvegicus)"
  TEST_READOUT: "log10(Ki)"
  MEASURED: 2.83
- COMPOUND: "Oc1cc2c(cc1Cl)CCN[C@H]2c1ccccc1"
  TARGET_DESC: "D(2) dopamine receptor (Rattus norvegicus)"
  TEST_READOUT: "log10(Ki)"
  MEASURED: 3.57
- COMPOUND: "Oc1cc2c(cc1Cl)CCN[C@@H]2c1ccccc1"
  TARGET_DESC: "D(2) dopamine receptor (Rattus norvegicus)"
  TEST_READOUT: "log10(Ki)"
  MEASURED: 4.42
